# Test system: Klebsiella pneumoniae
# testDescription: Antibacterial activity against Klebsiella pneumoniae at 75 ug/ml incubated for 24 hrs by agar well diffusion method
# Format: functional
# assaySetup: read-out: DIZ
Listed next: entries and their corresponding zone of inhibition at 75 µg/mL.
quantity: zone of inhibition at 75 µg/mL (mm)

1) CC(C)(C)OC(=O)N[C@@H](CS)C(=O)Oc1ccc2c(=O)c3ccccc3oc2c1 : 30
2) N[C@@H](Cc1ccc(O)cc1)C(=O)O : 11
3) Cl.N[C@@H](CS)C(=O)Oc1ccc2c(=O)c3ccccc3oc2c1 : 30
4) Cl.N[C@@H](Cc1c[nH]c2ccccc12)C(=O)Oc1ccc2c(=O)c3ccccc3oc2c1 : 37

###

# Test system: Staphylococcus aureus
# testDescription: Antibacterial activity against Staphylococcus aureus at 50 ug/ml incubated for 24 hrs by agar well diffusion method
# Type: functional
# assaySetup: read-out: DIZ
Listed next: entries and their corresponding zone of inhibition at 50 µg/mL.
quantity: zone of inhibition at 50 µg/mL (mm)

1) CC(C)(C)OC(=O)N[C@@H](Cc1ccccc1)C(=O)Oc1ccc2c(=O)c3ccccc3oc2c1 : 25
2) CC[C@H](C)[C@H](NC(=O)OC(C)(C)C)C(=O)Oc1ccc2c(=O)c3ccccc3oc2c1 : 10
3) Cl.N[C@@H](CS)C(=O)Oc1ccc2c(=O)c3ccccc3oc2c1 : 29
4) Cl.N[C@@H](Cc1ccc(O)cc1)C(=O)Oc1ccc2c(=O)c3ccccc3oc2c1 : 27
5) CC[C@H](C)[C@H](N)C(=O)Oc1ccc2c(=O)c3ccccc3oc2c1.Cl : 12

###

# Test system: Staphylococcus aureus
# testDescription: Antibacterial activity against Staphylococcus aureus at 50 ug/ml incubated for 24 hrs by agar well diffusion method
# Format: functional
# assaySetup: read-out: DIZ
quantity: zone of inhibition at 50 µg/mL (mm)

1. CSCC[C@H](N)C(=O)Oc1ccc2c(=O)c3ccccc3oc2c1.Cl : 19
2. Cl.N[C@@H](Cc1ccccc1)C(=O)Oc1ccc2c(=O)c3ccccc3oc2c1 : 27
3. CSCC[C@H](NC(=O)OC(C)(C)C)C(=O)Oc1ccc2c(=O)c3ccccc3oc2c1 : 17
4. CC(C)(C)OC(=O)NCC(=O)Oc1ccc2c(=O)c3ccccc3oc2c1 : 12
5. CC(C)(C)OC(=O)N[C@@H](Cc1ccc(O)cc1)C(=O)Oc1ccc2c(=O)c3ccccc3oc2c1 : 26
6. N[C@@H](Cc1ccc(O)cc1)C(=O)O : 8
7. O=c1c2ccccc2oc2cc(O)ccc12 : 7
8. N[C@@H](Cc1c[nH]c2ccccc12)C(=O)O : 9
9. CC(C)[C@H](N)C(=O)Oc1ccc2c(=O)c3ccccc3oc2c1.Cl : 17
10. CC(C)C[C@H](NC(=O)OC(C)(C)C)C(=O)Oc1ccc2c(=O)c3ccccc3oc2c1 : 13

###

Listed next: entries and their corresponding zone of inhibition at 25 µg/mL.
# System: Staphylococcus aureus
# testDescription: Antibacterial activity against Staphylococcus aureus at 25 ug/ml incubated for 24 hrs by agar well diffusion method
# Type: functional
# assaySetup: read-out: DIZ
quantity: zone of inhibition at 25 µg/mL (mm)

1. CC[C@H](C)[C@H](N)C(=O)Oc1ccc2c(=O)c3ccccc3oc2c1.Cl : 7
2. C[C@H](N)C(=O)Oc1ccc2c(=O)c3ccccc3oc2c1.Cl : 9
3. CC(C)(C)OC(=O)N[C@@H](Cc1ccc(O)cc1)C(=O)Oc1ccc2c(=O)c3ccccc3oc2c1 : 20
4. Cl.N[C@@H](Cc1c[nH]c2ccccc12)C(=O)Oc1ccc2c(=O)c3ccccc3oc2c1 : 24
5. CC(C)(C)OC(=O)N[C@@H](Cc1ccccc1)C(=O)Oc1ccc2c(=O)c3ccccc3oc2c1 : 18
6. CC(C)C[C@H](N)C(=O)Oc1ccc2c(=O)c3ccccc3oc2c1.Cl : 9
7. CC(C)C[C@H](NC(=O)OC(C)(C)C)C(=O)Oc1ccc2c(=O)c3ccccc3oc2c1 : 7
8. CC[C@H](C)[C@H](NC(=O)OC(C)(C)C)C(=O)Oc1ccc2c(=O)c3ccccc3oc2c1 : 4
9. Cl.N[C@@H](Cc1ccc(O)cc1)C(=O)Oc1ccc2c(=O)c3ccccc3oc2c1 : 23

###

# Test system: Escherichia coli
# testDescription: Antibacterial activity against Escherichia coli at 75 ug/ml incubated for 24 hrs by agar well diffusion method
# Format: functional
# assaySetup: read-out: DIZ
quantity: zone of inhibition at 75 µg/mL (mm)

1) Cl.NCC(=O)Oc1ccc2c(=O)c3ccccc3oc2c1 : 21
2) Cl.N[C@@H](Cc1c[nH]c2ccccc12)C(=O)Oc1ccc2c(=O)c3ccccc3oc2c1 : 38
3) C[C@H](N)C(=O)Oc1ccc2c(=O)c3ccccc3oc2c1.Cl : 22
4) CC(C)C[C@H](NC(=O)OC(C)(C)C)C(=O)Oc1ccc2c(=O)c3ccccc3oc2c1 : 17
5) CC[C@H](C)[C@H](N)C(=O)Oc1ccc2c(=O)c3ccccc3oc2c1.Cl : 18
6) CSCC[C@H](N)C(=O)Oc1ccc2c(=O)c3ccccc3oc2c1.Cl : 25
7) CC(C)C[C@H](N)C(=O)Oc1ccc2c(=O)c3ccccc3oc2c1.Cl : 20
8) Cl.N[C@@H](Cc1ccccc1)C(=O)Oc1ccc2c(=O)c3ccccc3oc2c1 : 34
9) Cl.O=C(Oc1ccc2c(=O)c3ccccc3oc2c1)[C@@H]1CCCN1 : 32
10) Cl.N[C@@H](CS)C(=O)Oc1ccc2c(=O)c3ccccc3oc2c1 : 34

###

# Test system: Erythrocyte
# testDescription: Anti-inflammatory activity in human RBC assessed as inhibition of hypotonic solution-induced hemolysis after 10 mins by spectrophotometric method
# Type: functional, cell-based
Listed next: entries and their corresponding IC50.
quantity: IC50 (µg/mL)

1. C[C@H](N)C(=O)Oc1ccc2c(=O)c3ccccc3oc2c1.Cl : 78
2. CC(C)(C)OC(=O)NCC(=O)Oc1ccc2c(=O)c3ccccc3oc2c1 : 66
3. CC[C@H](C)[C@H](NC(=O)OC(C)(C)C)C(=O)Oc1ccc2c(=O)c3ccccc3oc2c1 : 60
4. Cl.N[C@@H](CS)C(=O)Oc1ccc2c(=O)c3ccccc3oc2c1 : 30
5. CC(C)(C)OC(=O)N1CCC[C@H]1C(=O)Oc1ccc2c(=O)c3ccccc3oc2c1 : 34
6. Cl.O=C(Oc1ccc2c(=O)c3ccccc3oc2c1)[C@@H]1CCCN1 : 36
7. Cl.N[C@@H](Cc1ccc(O)cc1)C(=O)Oc1ccc2c(=O)c3ccccc3oc2c1 : 32
8. CSCC[C@H](N)C(=O)Oc1ccc2c(=O)c3ccccc3oc2c1.Cl : 34
9. Cl.NCC(=O)Oc1ccc2c(=O)c3ccccc3oc2c1 : 70
10. CC[C@H](C)[C@H](N)C(=O)Oc1ccc2c(=O)c3ccccc3oc2c1.Cl : 68
11. CC(C)(C)OC(=O)N[C@@H](Cc1c[nH]c2ccccc12)C(=O)Oc1ccc2c(=O)c3ccccc3oc2c1 : 24
12. C[C@H](NC(=O)OC(C)(C)C)C(=O)Oc1ccc2c(=O)c3ccccc3oc2c1 : 70
13. CC(C)[C@H](N)C(=O)Oc1ccc2c(=O)c3ccccc3oc2c1.Cl : 82
14. CC(C)(C)OC(=O)N[C@@H](CS)C(=O)Oc1ccc2c(=O)c3ccccc3oc2c1 : 32

###

# System: Klebsiella pneumoniae
# testDescription: Antibacterial activity against Klebsiella pneumoniae incubated for 24 hrs by microdilution method
# Assay type: functional
Listed next: entries and their corresponding MIC.
quantity: MIC

1. CC(C)(C)OC(=O)N[C@@H](Cc1c[nH]c2ccccc12)C(=O)Oc1ccc2c(=O)c3ccccc3oc2c1 : 20 µg/mL
2. Cl.N[C@@H](Cc1ccccc1)C(=O)Oc1ccc2c(=O)c3ccccc3oc2c1 : 24 µg/mL
3. CC(C)(C)OC(=O)N[C@@H](Cc1ccc(O)cc1)C(=O)Oc1ccc2c(=O)c3ccccc3oc2c1 : 24 µg/mL
4. Cl.N[C@@H](Cc1c[nH]c2ccccc12)C(=O)Oc1ccc2c(=O)c3ccccc3oc2c1 : 22 µg/mL
5. Cl.O=C(Oc1ccc2c(=O)c3ccccc3oc2c1)[C@@H]1CCCN1 : 26 µg/mL
6. Cl.N[C@@H](Cc1ccc(O)cc1)C(=O)Oc1ccc2c(=O)c3ccccc3oc2c1 : 17 µg/mL
7. CC(C)(C)OC(=O)N1CCC[C@H]1C(=O)Oc1ccc2c(=O)c3ccccc3oc2c1 : 24 µg/mL
8. CC(C)(C)OC(=O)N[C@@H](Cc1ccccc1)C(=O)Oc1ccc2c(=O)c3ccccc3oc2c1 : 26 µg/mL

###

Listed next: entries and their corresponding zone of inhibition at 25 µg/mL.
# Tested on: Staphylococcus aureus
# testDescription: Antibacterial activity against Staphylococcus aureus at 25 ug/ml incubated for 24 hrs by agar well diffusion method
# Format: functional
# assaySetup: read-out: DIZ
quantity: zone of inhibition at 25 µg/mL (mm)

1. N[C@@H](Cc1c[nH]c2ccccc12)C(=O)O : 6
2. CC(C)(C)OC(=O)N[C@@H](Cc1c[nH]c2ccccc12)C(=O)Oc1ccc2c(=O)c3ccccc3oc2c1 : 22
3. O=c1c2ccccc2oc2cc(O)ccc12 : 4
4. CC(C)[C@H](NC(=O)OC(C)(C)C)C(=O)Oc1ccc2c(=O)c3ccccc3oc2c1 : 10
5. Cl.NCC(=O)Oc1ccc2c(=O)c3ccccc3oc2c1 : 10
6. Cl.O=C(Oc1ccc2c(=O)c3ccccc3oc2c1)[C@@H]1CCCN1 : 20
